# assayText: Bmi1 luciferase reporter increase in mESCs, primary screen, esBAF inhibitor project, mouse ES cells, Bmi1 luciferase knock-in, single point (AID 602393);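 further: 0% = median of the plate's neutral control wells and 100% = double that signal; a rise in the Bmi1 reporter signal indicates esBAF inhibition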
# conditionSummary: 24 h, at 12.5 µM, hits give high values, 100% = twice the neutral-well signal
The campaign covered roughly 350,000 compounds. About 7,000 (2%) were called active. This is one part of a sample in which actives are shown more often than they occur.
observedProperty: reporter increase (%)
# unit: % | format: bare number

The cases that follow already have their reporter increase on record.
* COc1ccccc1-c1cnc2c(c1)C(=O)N([C@H](C)CO)C[C@H](C)[C@@H](CN(C)C(=O)CC1CC1)O2 | -6.49
* C[C@H](CO)N1C[C@H](C)[C@@H](CN(C)Cc2ccccn2)Oc2ncc(-c3cccc(F)c3)cc2C1=O | 0.648

Enquiry: reporter increase for `C[C@@H]1CN([C@H](C)CO)C(=O)c2cc(-c3cccc(F)c3)cnc2O[C@@H]1CN(C)C` ?
Return: -2.09

====

# assayText: Bmi1 luciferase reporter increase in mESCs, primary screen, esBAF inhibitor project, mouse ES cells, Bmi1 luciferase knock-in, single point (AID 602393);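 further: 0% = median of the plate's neutral control wells and 100% = double that signal; a rise in the Bmi1 reporter signal indicates esBAF inhibition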
# conditionSummary: 24 h, at 12.5 µM, hits give high values, 100% = twice the neutral-well signal
Out of some 350,000 compounds screened, about 7,000 (2%) were called active. The sample as a whole holds a higher share of actives than the screen did.
observedProperty: reporter increase (%)
Give the value in % but do not write % after it.

* COc1cccc(-c2ccc3n(c2=O)C[C@H]2[C@H](CO)[C@@H](C(=O)NC4CCCC4)[C@@H]3N2C)c1 | 3.16
* C[C@H]1CN([C@@H](C)CO)C(=O)c2cc(C3=CCCC3)cnc2O[C@H]1CN(C)C(=O)Nc1ccc(F)cc1 | -1.8
* Cc1ccccc1CSc1nnc(-c2cccnc2)n1N | 17.5
* COc1ccc(CN(C)C[C@@H]2OCCCC[C@H](C)Oc3ccc(NS(C)(=O)=O)cc3C(=O)N([C@@H](C)CO)C[C@H]2C)cc1 | -1.93
* CC(C)NC(=O)N(C)C[C@@H]1Oc2c(cccc2N(C)C)C(=O)N([C@@H](C)CO)C[C@H]1C | -5.01

Enquiry: Could you tell me which reporter increase is on file for `CC(=O)N1CCN(CC(=O)Nc2ccc(C)c(F)c2)CC1` ?
Return: -6.19

Enquiry: Param item = `C[C@@H]1CN([C@@H](C)CO)C(=O)Cc2cc(NC(=O)Nc3ccc(F)cc3)ccc2O[C@@H]1CN(C)C(=O)NC1CCCCC1` ; retrieve measured reporter increase.
Return: 1.74

Enquiry: Please look up its reporter increase: `CN1CCN(C(=O)C[C@H]2C[C@H]3c4cc(NC(=O)Nc5ccccc5F)ccc4O[C@H]3[C@H](CO)O2)CC1`
Return: 2.41

Enquiry: reporter increase for `S=C(Nc1ccccc1)Nc1ccc2ccccc2c1` ?
Return: 78.2

Enquiry: So what does the record say about reporter increase for `CCOc1ccc(-n2c(SCC(=O)Nc3ccc(OC)cc3)nc3sc4c(c3c2=O)CCN(C)C4)cc1` ?
Return: 1.84

Enquiry: Quick one: reporter increase for `CCc1sc(C(=O)N2CCN(CC(=O)Nc3cccc(F)c3)CC2)cc1C` ?
Return: 79.7

Enquiry: Item under review: `O=C(O)C[C@H]1C[C@@H]2c3cc(NC(=O)Nc4ccc(C(F)(F)F)cc4)ccc3O[C@@H]2[C@@H](CO)O1` . Reported reporter increase?
Return: 2.29

Enquiry: For `CCOc1ccc(-n2c(SCC(=O)OC)nc3sc4c(c3c2=O)CCN(C)C4)cc1` , what is its reported reporter increase?
Return: 4.82

Enquiry: Item under review: `COc1cccc(C(=O)OCC(=O)c2[nH]c(C)c(C(C)=O)c2C)c1` . Reported reporter increase?
Return: 8.69

Enquiry: Reported reporter increase for `O=C(CN1CCN(c2ccc(F)cc2)CC1)Nc1cccc(C(F)(F)F)c1` : what is it?
Return: -10.4

Enquiry: # input molecule: `C[C@H]1CCCCO[C@@H](CN(C)Cc2ccc3c(c2)OCO3)[C@@H](C)CN([C@@H](C)CO)C(=O)c2cc(NS(=O)(=O)c3ccc(F)cc3)ccc2O1` ; wanted: its reporter increase
Return: 3.56

Enquiry: Recorded reporter increase of `FC(F)(F)Oc1ccc(NC(=S)NCc2ccccc2)cc1` , please.
Return: -1.5

Enquiry: Recorded reporter increase of `C[C@@H]1CN([C@@H](C)CO)C(=O)CCCn2cc(nn2)CO[C@@H]1CN(C)Cc1ccccc1C(=O)O` , please.
Return: -3.04

Enquiry: Tell me the measured reporter increase of `C=C(C)CSc1nnc(-c2ccc(C)cc2)n1N` , please.
Return: 57.8

Taken from PubChem BioAssay AID602393.
